species on record: Rattus norvegicus; experiment: DrugMatrix - Regimen: Daily Repeat; type: toxicity, organism-based, Sprague-Dawley; parameters: regimen Daily Repeat, gender Male, age 6-8 weeks; details: in vivo, po, 0 mg/kg, 120 h, tissue Blood, route oral GAVAGE, dose level Control, time 5 day, vehicle 100 % WATER
MONOCYTE of 2% or higher: fulfilled. Under 2%: not fulfilled.

C[C@@H]1C[C@@H]([C@H](O)CC2CC(=O)NC(=O)C2)C(=O)[C@@H](C)C1 [CYCLOHEXIMIDE] :: not fulfilled

Could you verify whether the entry ClC(Cl)Cl [CHLOROFORM] shows MONOCYTE of no less than 2%?
not fulfilled

Textbook exercise: given the entry C[N+](C)(C)CCO.[Cl-] [CHOLINE CHLORIDE] , state whether its MONOCYTE is greater than or equal to 2%.
not fulfilled

In plain terms: is recorded MONOCYTE at least 2% for CC(C)NCC(O)COc1cccc2ccccc12 (centres undefined) [PROPRANOLOL] ?
fulfilled

Hi team, for CC(C)C[C@H](NC(=O)[C@@H](O)[C@H](N)Cc1ccccc1)C(=O)O [UBENIMEX] , is the recorded MONOCYTE at or above 2%?
not fulfilled

I'd appreciate it if you could say whether Cc1ncc([N+](=O)[O-])n1CCO [METRONIDAZOLE] has MONOCYTE at least equal to 2%.
not fulfilled
